assay: self-splicing fitness, log relative to wild type (ln ratio); higher = more splicing; Tetrahymena group I intron in knt gene, E. coli kanamycin selection, DiMSum; sequences stand for … in CUCUCU…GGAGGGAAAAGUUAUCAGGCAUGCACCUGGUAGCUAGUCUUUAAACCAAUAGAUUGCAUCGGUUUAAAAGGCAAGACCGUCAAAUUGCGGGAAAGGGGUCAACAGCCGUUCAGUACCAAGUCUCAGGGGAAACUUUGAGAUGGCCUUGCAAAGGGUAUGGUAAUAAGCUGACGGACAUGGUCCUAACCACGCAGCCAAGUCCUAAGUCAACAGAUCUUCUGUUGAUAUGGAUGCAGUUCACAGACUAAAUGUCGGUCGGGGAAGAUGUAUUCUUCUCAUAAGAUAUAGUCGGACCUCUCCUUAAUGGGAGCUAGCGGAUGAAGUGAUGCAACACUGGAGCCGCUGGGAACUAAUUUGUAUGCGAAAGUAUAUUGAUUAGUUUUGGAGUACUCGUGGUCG; settings: 37 °C;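 note: selection with 25 µg/mL kanamycin versus none on LB agar overnight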
reportedEndpoint: self-splicing fitness (ln)
A bare number is all that is needed in reply.

Take a look at these entries with their results.
| orderedResidues | self-splicing fitness (ln) |
| --- | --- |
| UAUUAGCAAUAUUACGUAGC | -1.31 |
| AAGCAGCAAUAUUACGGUAA | -0.944 |
| CGAAAGCAAUAUUACGUGCA | -1.13 |
| ACCAAGCAAUAUUACGACUA | -0.585 |

In plain terms, CUAUAGCAAUAUUACGGUAC has a documented self-splicing fitness (ln) of -1.51

Data point: UCGGAGCAAUAUUACGCGAG ; self-splicing fitness (ln) = -1.64

What the record says about AUUAAGCAAUAUUACGGUUA : self-splicing fitness (ln) is -1.19

----------
test: self-splicing fitness, log relative to wild type (ln ratio); higher = more splicing; Tetrahymena group I intron in knt gene, E. coli kanamycin selection, DiMSum; sequences stand for … in CUCUCU…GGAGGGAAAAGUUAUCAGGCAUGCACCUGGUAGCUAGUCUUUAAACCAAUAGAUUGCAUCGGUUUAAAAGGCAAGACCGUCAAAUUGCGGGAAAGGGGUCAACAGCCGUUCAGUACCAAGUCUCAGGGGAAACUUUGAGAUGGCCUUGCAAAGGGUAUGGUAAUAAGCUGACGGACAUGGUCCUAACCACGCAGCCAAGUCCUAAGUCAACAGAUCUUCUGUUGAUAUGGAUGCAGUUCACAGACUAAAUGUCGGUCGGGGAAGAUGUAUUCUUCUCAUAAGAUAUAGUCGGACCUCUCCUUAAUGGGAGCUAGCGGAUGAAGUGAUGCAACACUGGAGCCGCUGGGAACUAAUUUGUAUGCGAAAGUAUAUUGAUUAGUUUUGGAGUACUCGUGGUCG; settings: 30 °C
Class (by self-splicing fitness (ln)) -- Low = under -3, Mid = from -3 up to -2, High = -2 and over

Field: example entries. Status: answers known.
| orderedResidues | categoryLabel |
| --- | --- |
| UUGAAGCAAUAUUACGUAGG | High |
| GAGGAGCAAUAUUACGGCCC | High |
| AAUGAGCAAUAUUACGGCGA | Mid |
| UCCCAGCAAUAUUACGUACA | High |
| AGGAAGCAAUAUUACGCAGU | Low |
| UUUAAGCAAUAUUACGGGUA | Mid |

Input line: // return the class label for UGUAAGCAAUAUUACGGGAC
Output line: Mid

Input line: Please classify: AACCAGCAAUAUUACGGAUG
Output line: High

Input line: Field: class (self-splicing fitness (ln)) — entry: CGGAAGCAAUAUUACGUCUG
Output line: Low

Input line: For this sequence, which bin applies? CACCAGCAAUAUUACGCAGA
Output line: Low

Values were extracted from the supplement of paper PMC7877785.
